Target: human EP3 receptor (Homo sapiens, UniProt P43115)
Sequence (P43115 whole entry): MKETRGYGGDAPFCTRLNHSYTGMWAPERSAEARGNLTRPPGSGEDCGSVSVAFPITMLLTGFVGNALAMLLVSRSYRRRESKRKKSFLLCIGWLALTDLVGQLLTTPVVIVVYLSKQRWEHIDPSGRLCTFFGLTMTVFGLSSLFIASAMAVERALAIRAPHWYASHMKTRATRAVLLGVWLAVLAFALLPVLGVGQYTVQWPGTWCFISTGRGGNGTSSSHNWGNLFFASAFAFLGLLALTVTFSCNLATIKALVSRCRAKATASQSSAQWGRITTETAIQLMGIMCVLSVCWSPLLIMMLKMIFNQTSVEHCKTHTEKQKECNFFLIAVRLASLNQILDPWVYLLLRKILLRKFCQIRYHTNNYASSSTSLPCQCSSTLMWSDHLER
Assay: Cellular in vitro assay for determining EP3 receptor activity (human EP3 cell line, sulprostone-stimulated calcium luminescence)
Details: CHO cells expressing human EP3 and mitochondrial Clytin; antagonist mode, sulprostone at EC50; read-out: EP3 CHO mtCLY ANTAG IC50

| COMPOUND | TARGET DESC | VALUE UNITS | IC50 |
| --- | --- | --- | --- |
| C[C@@H](NC(=O)c1cc2c(=O)[nH]c(-c3cnc4ccccc4c3)cn2n1)c1ccc(F)cc1 | human EP3 receptor (Homo sapiens, UniProt P43115) | nM | 3.13 |
| Cc1ccc(-c2cn3nc(C(=O)N[C@H](C)C(C)(C)C)c(C4CC4)c3c(=O)[nH]2)cc1Cl | human EP3 receptor (Homo sapiens, UniProt P43115) | nM | 2.05 |
| Cc1cccc2ncc(-c3cn4nc(C(=O)NCC5CNC(=O)O5)c(C(C)C)c4c(=O)[nH]3)cc12 (stereo not shown) | human EP3 receptor (Homo sapiens, UniProt P43115) | nM | 4.45 |
| C[C@H](NC(=O)c1nn2cc(-c3ccc(Cl)c(Cl)c3)[nH]c(=O)c2c1C1CCC1)C1CC1 | human EP3 receptor (Homo sapiens, UniProt P43115) | nM | 1.45 |
| N#Cc1c(C(=O)N[C@H](CCO)c2ccc(F)cc2)nn2cc(-c3ccc4ccccc4c3)[nH]c(=O)c12 | human EP3 receptor (Homo sapiens, UniProt P43115) | nM | 1.45 |
| Cc1ccc(-c2cn3nc(C(=O)NC(c4ccccc4)C(O)C(F)(F)F)cc3c(=O)[nH]2)cc1C (stereo not shown) | human EP3 receptor (Homo sapiens, UniProt P43115) | nM | 0.78 |
| CC[C@@H](C)NC(=O)c1nn2cc(-c3ccc(C)c(C)c3)[nH]c(=O)c2c1C(C)C | human EP3 receptor (Homo sapiens, UniProt P43115) | nM | 1.95 |

###

Listed here are molecules together with their documented IC50.
Target: human EP3 receptor (Homo sapiens, UniProt P43115)
Assay: Cellular in vitro assay for determining EP3 receptor activity (human EP3 cell line, sulprostone-stimulated calcium luminescence)
Conditions: CHO cells expressing human EP3 and mitochondrial Clytin; antagonist mode, sulprostone at EC50; read-out: EP3 CHO mtCLY ANTAG IC50
Counter-ions that a name gives are not always drawn.

| MOLECULE | IC50 [nM] |
| --- | --- |
| CN1CC(NC(=O)c2nn3cc(-c4ccc5ccccc5c4)[nH]c(=O)c3c2C(F)(F)F)(c2ccc(F)cc2)C1 [Example 1-31, trifluoroacetic acid salt] | 1.84 |
| Cc1cc(-c2cn3nc(C(=O)NC4(c5ccc(F)cc5)CN(C)C4)c(C(F)(F)C(F)(F)F)c3c(=O)[nH]2)ccc1Cl [6-480] | 3.05 |
| [N-]=[N+]=NC[C@H](NC(=O)c1cc2c(=O)[nH]c(-c3ccc4ccccc4c3)cn2n1)c1ccccc1 [6-59] | 4.2 |
| Cc1cc(-c2cn3nc(C(=O)N[C@H](c4ccc(F)cc4)C(C)(C)O)c(C4CC4)c3c(=O)[nH]2)ccc1C(F)(F)F [6-134] | 8.6 |
| Cc1cccc2ncc(-c3cn4nc(C(=O)N[C@H](CCO)c5ccccc5)c(C(C)C)c4c(=O)[nH]3)cc12 [Example 1-88] | 1.35 |
| COc1ccc(C(NC(=O)c2nn3cc(-c4ccc5ccccc5c4)[nH]c(=O)c3c2C#N)C2CC2)cc1 (stereo not shown) [Example 3-56] | 3.15 |
| N#Cc1c(C(=O)NC2(c3ccc(F)cc3)CC2)nn2cc(-c3ccc4ccccc4c3)[nH]c(=O)c12 [6-70] | 4.75 |
